From: patent US20190367616A1

- target.system: T1, human PD-1 ECD (Acro Biosystems cat. no. PD1-H52219) (human, UniProt Q15116 25-170)
- T1 construct: extracellular domain; Bought monomeric ECD; also called monomeric PD-1 antigen
- T1 sequence (Q15116 25-170, one chain of several): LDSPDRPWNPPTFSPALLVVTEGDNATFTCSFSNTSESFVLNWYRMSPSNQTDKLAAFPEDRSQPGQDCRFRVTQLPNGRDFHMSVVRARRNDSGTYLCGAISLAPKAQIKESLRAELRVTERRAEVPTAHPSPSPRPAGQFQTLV
- test.summary: SPR, antibody on sensor, monomeric PD-1 ECD in solution
readout.label: kon
Give me the value, and tack the unit on after it.

Example entries begin here.
>  <binder>
antibody 18049 (antibody, V domains shown, Tested as human IgG1 L234A/L235A (LALA), kappa) VH: QVQLVESGGGVVQPGRSLRLSCAASGFTFSNYGMHWVRQAPGKGLEWVAVIWYDGSDKYYADSVKGRFTISRDNSKNTLYLQMNSLRAEDTAVYYCAGGGNYYGDFWGQGTLVTVSS VL: EIVMTQSPSSLSASVGDRVTITCRASQGIRNDLGWYQQKPGKAPKRLIYVASNLQSGVPSRFSGSGSGTEFTLTISSLQPEDFATYYCLQYNSYPWTFGQGTKVEIKR

>  <result>
34000 M⁻¹ s⁻¹

$$$$
>  <binder>
antibody 18098 (antibody, V domains shown, Tested as human IgG1 L234A/L235A (LALA), kappa) VH: QVQLQESGGGLVRPGGSLRLSCAASGFTFSSFAMNWVRQAPGKGLVWVSTITGGGTTSYYADSVKGRFTISRDNSKSTLFLQMNSLRAEDTAVYYCAKWGSWSAGAFDIWGQGTTVTVSS VL: DIQLTQSPSSVSASVGDRVTITCRASQGISSWLAWYQQKPGKAPKLLIYAASSLQSGVPSRFSGSGSGTDFTLTISSLQPEDFATYYCQQANSFPWTFGQGTKVEIKR

>  <result>
100000 M⁻¹ s⁻¹

$$$$
>  <binder>
antibody 18413 (antibody, V domains shown, Tested as human IgG1 L234A/L235A (LALA), kappa) VH: EVQLVESGGGLVQPGGSLRLSCAASGFTFSSFVMSWVRQAPGKGLEWLSTISGGGGSTYYADSVKGRFTISRDNSKNTLYLQMNSLRAEDTAVYYCAKDWDLYYFDYWGQGTLVTVSS VL: DIQLTQSPSSVPASVGDRVTITCRASQGISNWLAWYQQKPGKAPKLLIYAASSLQSGVPSRFSGSGSGTDFTLTISSLQPEDFATYYCQQANSFPLTFGGGTKVEIKR

>  <result>
77000 M⁻¹ s⁻¹

$$$$
>  <binder>
antibody 18325 (antibody, V domains shown, Tested as human IgG1 L234A/L235A (LALA), kappa) VH: QVQLQQSGGGLVQPGGSLRLSCAASGFTFSSHVMNWVRQAPGKGLEWVATISGSGVDTYYADSVKGRFTISRGNSKNMLYLQMNSLRAEDTAVYYCAKWGSWSAGAFDIWGQGTMVTVSS VL: EIVLTQSPSSVSASVGDRVTITCRASQGISSWLAWYQQKPGKAPKLLIYAASSLQSGVPSRFSGSGSGTDFTLTISSLQPEDFATYYCQQANSFPWTFGQGTKVEIKR

>  <result>
130000 M⁻¹ s⁻¹

$$$$
>  <binder>
antibody 18113 (antibody, V domains shown, Tested as human IgG1 L234A/L235A (LALA), kappa) VH: QVQLVESGGGLVKPGGSLRLSCAASGFTFSDYYMSWIRQAPGKGLEWVSYISSSGSTIYYADSAKGRFTISRDNAKNSLYLQMNSLRAEDTAVYYCARDTNWAFDYWGQGTLVTVSS VL: DIQLTQSPDSLAVSLGERATINCKSSQSVFYSANNKNYLAWYQQKPGQPPKLLIYWTSTRESGVPDRFRGSGSGTDFTLTISSLQAEDVAVYYCQQFYSTPRTFGQGTKVEIKR

>  <result>
170000 M⁻¹ s⁻¹

$$$$

Note to self: kon recorded for antibody 18400 (antibody, V domains shown, Tested as human IgG1 L234A/L235A (LALA), kappa) VH: QLQLQESGPGLVKPSGTLSLTCAVSGGSISSSNWWSWVRQPPKKGLEWVGEIFHDGTTSYNPSLKSRVTMSVDKSKNQFSLKLSSVTAADTAVYYCARGNWGSGALDIWGPGTMVTVSS VL: EIVMTQSPSPLSASVGDRVTITCRASQGIRNDLGWYQQKPGKAPKLLIYAASSLQSGVPSRFSGSGSGTDFTLTISSLQPEDFATYYCLQDYNYPRTFGQGTKVEIKR was 230000 M⁻¹ s⁻¹
